Data origin, for the record: DBAASP

MIC: recorded values
System: Pseudomonas aeruginosa ATCC 10145
Test: ≥ marks a high value that may be exact or a test limit, other limits are often not marked, values filed in µg/mL are converted to µM

[
  {
    "SMI": "CC(C)C[C@H](NC(=O)[C@H](CCCCN)NC(=O)[C@H](CC(C)C)NC(=O)[C@H](CCCCN)NC(=O)[C@H](CC(C)C)NC(=O)[C@H](CCCCN)NC(=O)[C@H](CC(C)C)NC(=O)[C@H](CCCCN)NC(=O)[C@H](CC(C)C)NC(=O)[C@H](CCCCN)NC(=O)[C@H](CC(C)C)NC(=O)[C@H](CCCCN)NC(=O)[C@H](CC(C)C)NC(=O)[C@H](CCCCN)NC(=O)[C@H](CC(C)C)NC(=O)[C@H](CCCCN)NC(=O)[C@H](CC(C)C)NC(=O)[C@H](CCCCN)NC(=O)[C@@H](N)CC(C)C)C(=O)N[C@@H](CCCCN)C(=O)O",
    "MIC": "≥ 51.4 µM"
  },
  {
    "SMI": "CC(C)C[C@H](NC(=O)[C@H](CCCCN)NC(=O)[C@H](CC(C)C)NC(=O)[C@H](CCCCN)NC(=O)[C@H](CC(C)C)NC(=O)[C@H](CCCCN)NC(=O)[C@H](CC(C)C)NC(=O)[C@H](CCCCN)NC(=O)[C@H](CC(C)C)NC(=O)[C@H](CCCCN)NC(=O)[C@H](CC(C)C)NC(=O)[C@H](CCCCN)NC(=O)[C@H](CC(C)C)NC(=O)[C@H](CCCCN)NC(=O)[C@@H](N)CC(C)C)C(=O)N[C@@H](CCCCN)C(=O)O",
    "MIC": "≥ 66.7 µM"
  }
]

###

System: Escherichia coli 1005
Assay: ≥ marks a high value that may be exact or a test limit, other limits are often not marked, values filed in µg/mL are converted to µM
PARAMETER: MIC (µM)

[
  {
    "COMPOUND": "CC(C)C[C@H](NC(=O)[C@H](CCCN=C(N)N)NC(=O)[C@H](CC(C)C)NC(=O)[C@H](CC(C)C)NC(=O)[C@H](CC(C)C)NC(=O)[C@H](CCCN=C(N)N)NC(=O)[C@H](CC(C)C)NC(=O)[C@@H](N)CCCN=C(N)N)C(=O)N[C@@H](CCCN=C(N)N)C(N)=O [RLRLLLRLR]",
    "MEASURED_ON": "Escherichia coli 1005",
    "U": "µM",
    "NUMERIC_RESULT": 4
  },
  {
    "COMPOUND": "NC(=O)[C@H](CCCN=C(N)N)NC(=O)[C@H](CCCN=C(N)N)NC(=O)[C@H](Cc1ccccc1)NC(=O)[C@H](CCCN=C(N)N)NC(=O)[C@H](Cc1ccccc1)NC(=O)[C@H](Cc1ccccc1)NC(=O)[C@H](Cc1ccccc1)NC(=O)[C@H](CCCN=C(N)N)NC(=O)[C@H](Cc1ccccc1)NC(=O)[C@H](CCCN=C(N)N)NC(=O)[C@@H](N)CCCN=C(N)N [RRFRFFFRFRR]",
    "MEASURED_ON": "Escherichia coli 1005",
    "U": "µM",
    "NUMERIC_RESULT": 4
  },
  {
    "COMPOUND": "CC[C@H](C)[C@H](NC(=O)[C@H](CCCN=C(N)N)NC(=O)[C@@H](NC(=O)[C@@H](NC(=O)[C@@H](NC(=O)[C@H](CCCN=C(N)N)NC(=O)[C@@H](NC(=O)[C@@H](N)CCCN=C(N)N)[C@@H](C)CC)[C@@H](C)CC)[C@@H](C)CC)[C@@H](C)CC)C(=O)N[C@@H](CCCN=C(N)N)C(N)=O [RIRIIIRIR]",
    "MEASURED_ON": "Escherichia coli 1005",
    "U": "µM",
    "NUMERIC_RESULT": 4
  },
  {
    "COMPOUND": "NC(=O)[C@H](CCCN=C(N)N)NC(=O)[C@H](Cc1c[nH]c2ccccc12)NC(=O)[C@H](CCCN=C(N)N)NC(=O)[C@H](Cc1c[nH]c2ccccc12)NC(=O)[C@H](Cc1c[nH]c2ccccc12)NC(=O)[C@H](Cc1c[nH]c2ccccc12)NC(=O)[C@H](CCCN=C(N)N)NC(=O)[C@H](Cc1c[nH]c2ccccc12)NC(=O)[C@@H](N)CCCN=C(N)N [RWRWWWRWR]",
    "MEASURED_ON": "Escherichia coli 1005",
    "U": "µM",
    "NUMERIC_RESULT": 2
  }
]

###

MIC: recorded values
Tested on: Pseudomonas aeruginosa
Experiment: ≥ marks a high value that may be exact or a test limit, other limits are often not marked, values filed in µg/mL are converted to µM

[
  {
    "SMI": "CC[C@H](C)[C@H](NC(=O)CN)C(=O)N[C@@H](CCSC)C(=O)N[C@@H](CO)C(=O)N[C@@H](CO)C(=O)N[C@@H](CC(C)C)C(=O)N[C@@H](CCSC)C(=O)N[C@@H](CCCCN)C(=O)N[C@@H](CCCCN)C(=O)N[C@@H](CC(C)C)C(=O)N[C@@H](CCCCN)C(=O)N[C@@H](C)C(=O)N[C@@H](Cc1cnc[nH]1)C(=O)N[C@H](C(=O)N[C@@H](C)C(=O)N[C@@H](CCCCN)C(N)=O)[C@@H](C)CC",
    "MIC (µM)": 47
  },
  {
    "SMI": "CC(C)C[C@H](NC(=O)[C@H](Cc1cnc[nH]1)NC(=O)[C@H](CO)NC(=O)[C@H](C)NC(=O)[C@H](CC(C)C)NC(=O)[C@@H](NC(=O)[C@@H](NC(=O)[C@H](CC(C)C)NC(=O)[C@H](CC(C)C)NC(=O)[C@H](CO)NC(=O)[C@H](Cc1cnc[nH]1)NC(=O)[C@H](CO)NC(=O)[C@H](CC(C)C)NC(=O)[C@H](CC(C)C)NC(=O)[C@H](CCCCN)NC(=O)[C@H](Cc1ccccc1)NC(=O)[C@H](CCCN=C(N)N)NC(=O)[C@@H](N)CCCN=C(N)N)C(C)C)[C@@H](C)O)C(=O)O",
    "MIC (µM)": 2.99
  }
]

###

Data export: MIC values recorded with Staphylococcus aureus NCTC 10788.
PARAMETER: MIC (µM)

[
  {
    "COMPOUND": "CC[C@H](C)[C@H](NC(=O)[C@H](C)NC(=O)[C@H](Cc1cnc[nH]1)NC(=O)[C@@H]1CCCN1C(=O)[C@@H](NC(=O)[C@H](CC(C)C)NC(=O)[C@H](CO)NC(=O)[C@H](Cc1ccccc1)NC(=O)[C@H](CC(C)C)NC(=O)[C@@H](N)Cc1ccccc1)[C@@H](C)CC)C(=O)NCC(=O)NCC(=O)N[C@@H](CC(C)C)C(=O)N[C@H](C(=O)N[C@@H](CO)C(=O)N[C@@H](C)C(=O)N[C@@H](Cc1ccccc1)C(=O)N[C@@H](CCCCN)C(N)=O)[C@@H](C)CC [FLFSLIPHAIGGLISAFK]",
    "MEASURED_ON": "Staphylococcus aureus NCTC 10788",
    "PARAMETER": "MIC",
    "BOUND_OPERATOR": "=",
    "NUMERIC_RESULT": 20
  },
  {
    "COMPOUND": "CC(C)C[C@H](NC(=O)[C@H](CC(C)C)NC(=O)[C@H](CCCCN)NC(=O)[C@@H]1CCCN1C(=O)[C@H](CC(C)C)NC(=O)[C@@H](N)Cc1ccccc1)C(=O)N[C@@H](C)C(=O)NCC(=O)N[C@@H](CC(C)C)C(=O)N1CCC[C@H]1C(=O)N[C@@H](CO)C(=O)N[C@@H](Cc1ccccc1)C(=O)N[C@@H](CC(C)C)C(=O)N[C@H]1CSSC[C@@H](C(=O)O)NC(=O)[C@H](CCCCN)NC(=O)[C@H](CCCCN)NC(=O)[C@H](Cc2ccccc2)NC(=O)[C@H](C(C)C)NC(=O)[C@H](CC(C)C)NC1=O [FLPKLLAGLPSFLCLVFKKC]",
    "MEASURED_ON": "Staphylococcus aureus NCTC 10788",
    "PARAMETER": "MIC",
    "BOUND_OPERATOR": "=",
    "NUMERIC_RESULT": 16
  },
  {
    "COMPOUND": "CC[C@H](C)[C@H](NC(=O)CNC(=O)CNC(=O)[C@H](CC(C)C)NC(=O)[C@@H](N)Cc1ccccc1)C(=O)N[C@@H](CC(C)C)C(=O)N[C@@H](CC(N)=O)C(=O)N[C@H](C(=O)N[C@H](C(=O)N[C@H](C(=O)NCC(=O)N[C@@H](CC(C)C)C(=O)N[C@@H](CC(C)C)C(N)=O)[C@@H](C)O)[C@@H](C)CC)[C@@H](C)O [FLGGILNTITGLL]",
    "MEASURED_ON": "Staphylococcus aureus NCTC 10788",
    "PARAMETER": "MIC",
    "BOUND_OPERATOR": "=",
    "NUMERIC_RESULT": 30
  },
  {
    "COMPOUND": "CC[C@H](C)[C@H](NC(=O)[C@H](C)NC(=O)[C@H](CO)NC(=O)[C@@H](NC(=O)[C@H](C)NC(=O)[C@H](CC(C)C)NC(=O)[C@@H]1CCCN1C(=O)[C@@H](NC(=O)[C@H](CCSC)NC(=O)CNC(=O)[C@H](CC(C)C)NC(=O)[C@@H](N)CC(C)C)[C@@H](C)CC)[C@@H](C)CC)C(=O)N[C@@H](CO)C(=O)N[C@@H](C)C(=O)N[C@@H](CC(C)C)C(=O)N[C@@H](CO)C(=O)N[C@@H](CCCCN)C(=O)N[C@@H](CC(C)C)C(N)=O [LLGMIPLAISAISALSKL]",
    "MEASURED_ON": "Staphylococcus aureus NCTC 10788",
    "PARAMETER": "MIC",
    "BOUND_OPERATOR": "=",
    "NUMERIC_RESULT": 4.42
  },
  {
    "COMPOUND": "CC[C@H](C)[C@H](NC(=O)[C@H](C)NC(=O)[C@H](C)NC(=O)[C@@H]1CCCN1C(=O)[C@@H](NC(=O)[C@H](CC(C)C)NC(=O)[C@H](CO)NC(=O)[C@H](CC(C)C)NC(=O)[C@@H](N)Cc1ccccc1)[C@@H](C)CC)C(=O)N[C@@H](CO)C(=O)N[C@@H](C)C(=O)N[C@H](C(=O)N[C@@H](CO)C(=O)N[C@@H](C)C(=O)N[C@@H](CC(C)C)C(=O)N[C@@H](C)C(=O)N[C@@H](CC(N)=O)C(=O)N[C@@H](Cc1cnc[nH]1)C(=O)N[C@@H](Cc1ccccc1)C(N)=O)C(C)C [FLSLIPAAISAVSALANHF]",
    "MEASURED_ON": "Staphylococcus aureus NCTC 10788",
    "PARAMETER": "MIC",
    "BOUND_OPERATOR": "≥",
    "NUMERIC_RESULT": 33
  }
]
